For each of the compounds below, state its IC50.
TESTED_TARGET: p110α/p85 (Homo sapiens)
Sequence (P42336 whole entry): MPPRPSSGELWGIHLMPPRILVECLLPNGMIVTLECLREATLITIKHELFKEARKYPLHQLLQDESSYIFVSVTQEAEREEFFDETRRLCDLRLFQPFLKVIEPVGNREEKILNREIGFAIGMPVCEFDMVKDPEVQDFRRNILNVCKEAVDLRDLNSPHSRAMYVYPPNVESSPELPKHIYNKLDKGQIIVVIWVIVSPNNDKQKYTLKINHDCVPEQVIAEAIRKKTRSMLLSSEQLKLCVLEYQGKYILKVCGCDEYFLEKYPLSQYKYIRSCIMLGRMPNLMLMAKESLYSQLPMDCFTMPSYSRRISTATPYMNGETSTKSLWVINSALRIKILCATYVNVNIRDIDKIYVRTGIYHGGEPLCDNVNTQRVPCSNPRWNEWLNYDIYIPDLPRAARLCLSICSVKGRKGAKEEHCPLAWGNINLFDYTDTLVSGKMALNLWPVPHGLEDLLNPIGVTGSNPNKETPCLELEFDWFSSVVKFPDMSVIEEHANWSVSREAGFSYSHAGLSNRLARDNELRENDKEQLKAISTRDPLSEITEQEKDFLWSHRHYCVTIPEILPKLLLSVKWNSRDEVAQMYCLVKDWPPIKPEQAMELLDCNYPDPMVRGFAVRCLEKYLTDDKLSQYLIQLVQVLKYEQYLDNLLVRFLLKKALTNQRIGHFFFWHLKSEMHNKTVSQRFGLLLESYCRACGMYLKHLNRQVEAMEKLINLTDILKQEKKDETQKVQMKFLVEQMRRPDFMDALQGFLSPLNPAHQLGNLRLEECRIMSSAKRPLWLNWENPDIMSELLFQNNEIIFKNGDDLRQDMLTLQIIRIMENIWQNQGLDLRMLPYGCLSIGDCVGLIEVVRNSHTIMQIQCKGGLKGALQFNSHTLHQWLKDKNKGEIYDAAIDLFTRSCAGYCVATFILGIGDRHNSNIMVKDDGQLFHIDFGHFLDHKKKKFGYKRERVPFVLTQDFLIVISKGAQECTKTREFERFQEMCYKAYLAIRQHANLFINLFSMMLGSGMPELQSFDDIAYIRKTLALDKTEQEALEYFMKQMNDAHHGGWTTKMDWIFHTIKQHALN
Sequence (P27986 whole entry partner): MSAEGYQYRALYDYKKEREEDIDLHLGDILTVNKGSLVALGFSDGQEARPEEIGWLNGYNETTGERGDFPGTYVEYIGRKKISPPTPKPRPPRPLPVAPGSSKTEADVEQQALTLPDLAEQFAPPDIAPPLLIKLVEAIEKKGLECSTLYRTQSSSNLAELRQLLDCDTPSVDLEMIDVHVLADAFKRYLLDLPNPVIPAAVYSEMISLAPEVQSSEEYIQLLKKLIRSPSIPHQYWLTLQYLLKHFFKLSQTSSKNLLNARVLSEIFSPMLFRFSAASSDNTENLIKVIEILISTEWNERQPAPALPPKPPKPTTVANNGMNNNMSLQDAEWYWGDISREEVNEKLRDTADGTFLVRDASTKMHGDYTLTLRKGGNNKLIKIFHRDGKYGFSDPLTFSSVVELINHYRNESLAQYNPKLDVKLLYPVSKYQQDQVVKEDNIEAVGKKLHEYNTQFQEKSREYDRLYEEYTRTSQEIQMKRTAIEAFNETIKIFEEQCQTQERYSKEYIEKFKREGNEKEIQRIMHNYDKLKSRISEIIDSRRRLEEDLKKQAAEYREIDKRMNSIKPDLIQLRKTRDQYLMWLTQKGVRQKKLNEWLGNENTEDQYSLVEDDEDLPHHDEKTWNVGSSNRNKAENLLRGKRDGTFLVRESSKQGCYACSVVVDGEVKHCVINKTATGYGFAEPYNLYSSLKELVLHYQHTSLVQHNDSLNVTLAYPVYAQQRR
PROTOCOL_DETAILS: Inhibition of isolated enzyme (lipid kinase assay, [γ33P]ATP, TLC)
RECORDED_CONDITIONS: recombinant enzyme, 100 μM ATP, 1 hr room temperature, average of two experiments
Experimental: Compounds were evaluated for their ability to inhibit Class I PI 3-kinase enzymes p110δ/p85, p110α/p85, and p110β/p85. […] The TLC plates were then dried at room temperature and quantified using a phosphorimager (StormImager, Amersham). […]

Sample records with IC50:
> print(dat)
                                   compound       measurement
1  COc1ncc(-c2cc(N3CCOCC3)nc(-n3c(C(F)F)nc4c(OC)cccc43)n2)cn1 [Example 57]          < 100 nM
2  COc1cccc2c1nc(C(F)F)n2-c1nc(Nc2ccc(N)nc2)nc(N2CCOCC2)n1 [Example 37]          < 100 nM
3  CN(c1ccccc1)c1nc(N2CCOCC2)nc(-n2c(C(F)F)nc3ccccc32)n1 [Example 7]    100 to 1000 nM
4  FC(F)c1nc2ccccc2n1-c1nc(Nc2cncnc2)nc(N2CCOCC2)n1 [Example 21]          < 100 nM
5  CN(Cc1ccccc1)c1nc(N2CCOCC2)nc(-n2c(C(F)F)nc3ccccc32)n1 [Example 9]  1000 to 10000 nM

Go through the items and report each one's IC50.
1. COc1cccc2c1nc(C(F)F)n2-c1nc(Nc2ccncn2)nc(N2CCOCC2)n1 [Example 36]
2. COc1ncc(Nc2nc(N3CCOCC3)nc(-n3c(C(F)F)nc4c(OC)cccc43)n2)cn1 [Example 40]
3. COc1ccc(Nc2nc(N3CCOCC3)nc(-n3c(C(F)F)nc4c(OC)cccc43)n2)nn1 [Example 34]
4. COc1ccc(Nc2nc(N3CCOCC3)nc(-n3c(C(F)F)nc4c(OC)cccc43)n2)cn1 [Example 28]
5. CS(=O)(=O)c1nc2ccccc2n1-c1nc(Nc2cccnc2)nc(N2CCOCC2)n1 [Example 5]
6. FC(F)c1nc2ccccc2n1-c1nc(Nc2ccccn2)nc(N2CCOCC2)n1 [Example 16]
7. FC(F)c1nc2ccccc2n1-c1nc(NCc2ccccc2)nc(N2CCOCC2)n1 [Example 8]
8. COc1ccncc1Nc1nc(N2CCOCC2)nc(-n2c(C(F)F)nc3c(OC)cccc32)n1 [Example 27]

Given back:
< 100 nM
< 100 nM
< 100 nM
< 100 nM
100 to 1000 nM
< 100 nM
100 to 1000 nM
< 100 nM
